Tested on: colon cancer RkO
Assay: In vitro cell inhibition assay, colon cancer RkO
Type: cell-based, human
Details: 0.25 μM
Listed next: entries and their corresponding Inhibition rate on human cancer cells.
Write the value in % as a bare number.

The examples below pair each entry with its known result.
COC=C(C(=O)OC)c1ccccc1COc1ccc2c3c(c(=O)oc2c1)CCCC3 [Compound 28-128] : 99
N.N.[Cl][Pt][Cl] [Cisplatin, reference compound] : 0
CCCCc1c(C)c2ccc(OCc3ccccc3/C(=C\OC)C(=O)OC)cc2oc1=O [Compound 28-72, coumoxystrobin] : 95

Please find the next compound below.
Query block: With colon cancer RkO as the test system, provide measured Inhibition rate on human cancer cells for this compound: COC=C(C(=O)OC)c1ccccc1COc1ccc2c3c(c(=O)oc2c1C)CCCC3 [Compound 28-129]
Result block: 85

Reference source for all entries: patent US9895346B2
